target: dipeptidyl peptidase IV (Rattus norvegicus, UniProt P14740); construct: from tissue; host or cells: SD rat blood plasma; test: Determination of dipeptidyl peptidase IV inhibitory activity in rat plasma; type: biochemical, SD rat
Sequence (P14740 37-767 limits assumed): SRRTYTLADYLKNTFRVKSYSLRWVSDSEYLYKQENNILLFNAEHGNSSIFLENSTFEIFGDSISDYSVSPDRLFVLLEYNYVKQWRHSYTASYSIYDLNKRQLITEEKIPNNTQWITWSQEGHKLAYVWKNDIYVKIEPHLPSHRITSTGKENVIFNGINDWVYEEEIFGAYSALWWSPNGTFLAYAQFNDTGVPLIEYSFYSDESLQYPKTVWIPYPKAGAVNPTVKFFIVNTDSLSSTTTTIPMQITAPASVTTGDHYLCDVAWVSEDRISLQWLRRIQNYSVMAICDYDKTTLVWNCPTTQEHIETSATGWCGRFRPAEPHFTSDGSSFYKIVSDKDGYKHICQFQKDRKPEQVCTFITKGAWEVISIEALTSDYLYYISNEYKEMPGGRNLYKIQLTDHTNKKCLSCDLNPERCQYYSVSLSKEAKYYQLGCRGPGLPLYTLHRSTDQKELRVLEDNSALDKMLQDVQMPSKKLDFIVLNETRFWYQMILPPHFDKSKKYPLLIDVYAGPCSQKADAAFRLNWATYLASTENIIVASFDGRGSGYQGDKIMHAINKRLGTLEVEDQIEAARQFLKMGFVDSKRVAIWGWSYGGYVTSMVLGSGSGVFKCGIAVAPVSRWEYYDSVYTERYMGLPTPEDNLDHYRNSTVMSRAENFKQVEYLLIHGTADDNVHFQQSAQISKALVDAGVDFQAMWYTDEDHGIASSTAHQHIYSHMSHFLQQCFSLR
Structures can show the parent of a compound that is named as a salt.
Result type: pIC50
Scale note: pIC50 = -log10(concentration in M).

Measured pIC50 of Cc1ccc(-c2c(CN)c(CC(C)C)nc(C)c2C(=O)OCc2ccc(C(=O)O)cc2)cc1 [Example 170, dihydrochloride] : 7.00

---

target: dipeptidyl peptidase IV (Rattus norvegicus); construct: from tissue; host or cells: SD rat blood plasma; test: Determination of dipeptidyl peptidase IV inhibitory activity in rat plasma; assay type: biochemical, SD rat; conditions: Experimental Example 1; SD rat plasma, Gly-Pro-p-NA substrate, 30° C., 1 hr, absorbance 405 nm; read-out: IC50 value (dipeptidyl peptidase IV inhibitory activity)
Result type: pIC50
Friendly reminder that pIC50 comes from taking -log10 of the concentration in mol/L.

Looking up COC(=O)c1c(C)nc(CC(C)C)c(CN)c1-c1ccc(C)cc1 , I found its pIC50 recorded as 6.28

---

Biological target: dipeptidyl peptidase IV (Rattus norvegicus)
Construct: from tissue; host or cells: SD rat blood plasma
Experiment: Determination of dipeptidyl peptidase IV inhibitory activity in rat plasma
Format: biochemical, SD rat
Conditions: Experimental Example 2; same manner as Experimental Example 1; SD rat plasma, Gly-Pro-p-NA substrate, 30° C.; read-out: IC50 value (dipeptidyl peptidase IV inhibitory activity)
Experimental: Determination of Dipeptidyl Peptidase IV Inhibitory Activity in Rat Plasma An N,N-dimethylformamide solution (1 μL) containing the test compound was added to a mixture of water (69 μL), 1 M Tris-hydrochloride buffer (10 μL, pH 7.5) and 1 mM aqueous Gly-Pro-p-NA solution (100 μL) to prepare a mixed solution. […]
Where a name gives a salt, the structure may show the parent alone.
Label 1.0 when IC50 is strictly below 7 nM; at or above that, label 0.0.

These solved cases illustrate the format of a correct answer.
INSERT INTO assay_data (molecule, answer_label) VALUES
  ('COC(=O)c1cn(C)nc1OCc1c(C)nc(CC(C)C)c(CN)c1-c1ccc(C)cc1 [Example 305, dihydrochloride]', 1.0),
  ('Cc1ccc(-c2c(CSc3ccccc3C(N)=O)c(C)nc(CC(C)C)c2CN)cc1 [Example 210, dihydrochloride]', 0.0),
  ('Cc1ccc(-c2c(CN)c(CC(C)C)nc(C(C)C)c2C(=O)O)cc1 [Example 26, dihydrochloride]', 1.0);

Quick check: IC50 of CCOC(=O)C1CCN(C(=O)Cc2c(C)nc(CC(C)C)c(CN)c2-c2ccc(C)cc2)CC1 [Example 421, dihydrochloride] under 7 nM?
0.0

Identify whether the molecule Cc1ccc(-c2c(CN)c(CC(C)C)nc(C)c2NC(=O)c2cnoc2)cc1 [Example 350, dihydrochloride] records IC50 below 7 nM.
0.0

Please determine if Cc1ccc(-c2c(CN)c(CC(C)C)nc(C)c2NC(=O)c2ccc(F)cc2)cc1 [Example 267, dihydrochloride] is below 7 nM in terms of IC50.
0.0

Does Cc1ccc(-c2c(CC(=O)N3CCC(C(=O)O)CC3)c(C)nc(CC(C)C)c2CN)cc1 [Example 422, dihydrochloride] have IC50 strictly under 7 nM?
0.0

Identify whether the molecule Cc1ccc(-c2c(CC(=O)N3CCOCC3)c(C)nc(CC(C)C)c2CN)cc1 [Example 312, dihydrochloride] records IC50 below 7 nM.
0.0
